- System: OVCAR-4
- assay-explanation: NCI tumour cell line growth inhibition, 48 h
The source made the active and inactive calls. Rule as the data show it: active = GI50 up to about 1.1 µM and inactive = higher.
measurement-name: GI50

// below: answered molecules
molecule | GI50
O=c1[nH]c(=O)n(C2OC(CO)C(O)C2O)cc1OCC(F)(F)F (stereo not given) | > 100 µM (inactive)
C[C@@]12C[C@@H](c3ccccc3O1)N1CCSC1=N2 | > 100 µM (inactive)
CN(C)CCCN1CCc2c([nH]c3ccccc23)C1c1cccnc1 (stereo not given) | > 100 µM (inactive)
NC(=S)N1N=C2c3ccccc3CC[C@@H]2[C@@H]1c1ccccc1 | 23.8 µM (inactive)
[N-]=[N+]=Nc1ccc2c(c1)Sc1ccccc1N2CCCCCl | 80.4 µM (inactive)
CC(C)C1=CC23CCC4C(C)(C(=O)O)CCCC4(C)C2CC1C1C(=O)N(c2cccc(N4C(=O)C5C6CC7C8(C)CCCC(C)(C(=O)O)C8CCC7(C=C6C(C)C)C5C4=O)c2)C(=O)C13 (stereo not given) | 24 µM (inactive)
CC(/C=N\NC(=S)N(C)C)=N/NC(=S)N(C)C | 5.16 µM (inactive)
O=C1CCC2(CC1CCSc1ccccc1)OCCO2 (stereo not given) | > 100 µM (inactive)

Form field: reported GI50 of "NCCCN(CCCCN(CCCN)Cc1ccccc1)Cc1ccccc1"
28.6 µM (inactive)

Also, COc1ccc(C(O)/C(=C/n2ccnc2)c2ccccc2)cc1OC (stereo not given) please.
> 100 µM (inactive)

---

- Tested on: HCT-15
Entries and their GI50 values follow.
Answer with a number only, understood to be in µM.

// below: answered molecules
molecule | GI50 (µM)
CCC/C(Cl)=N/OC(NC(=O)OCC)(C(F)(F)F)C(F)(F)F | 21.6
COC(=O)/C=C\C(C#N)(C#N)/N=C/c1cccc(OC)c1 | 1.93
Nc1nc(Sc2ccc([N+](=O)[O-])cn2)c2nc[nH]c2n1 | 9.55
Cc1ccc(NC(=O)CC/C(CC(=O)C(C)(C)C)=N\NC(=O)C[n+]2ccccc2)cc1C | 53
CC(C)C1=CC23CCC4C(C)(C(=O)O)CCCC4(C)C2CC1C1C(=O)N(c2cccc(N4C(=O)C5C6CC7C8(C)CCCC(C)(C(=O)O)C8CCC7(C=C6C(C)C)C5C4=O)c2)C(=O)C13 (centres undefined) | 11.4
O=C1c2cccc3cc([N+](=O)[O-])cc(c23)C(=O)N1c1ccc(OCCN2CCCC2)cc1 | 14.2
COc1cc(/C=C/C2=NN(c3cccc(S(=O)(=O)O)c3)C3(C2)SCC(=O)N3c2nc3ccccc3s2)cc(OC)c1OC (centres undefined) | 51.9
COc1cc2oc(-c3ccc4c(c3)OCO4)c(OC)c(=O)c2c(OC)c1O | 78.7
O=NN(CCCl)C(=O)N[C@H]1CC[C@@H](O)CC1 | 21.6
O=C1[C@@H]2C3C=CC([C@H]4C(=O)N(CO)C(=O)[C@@H]34)[C@@H]2C(=O)N1CO | 25.4

Form field: reported GI50 of CCC1(O)C(=O)OCc2c1cc1n(c2=O)Cc2c-1nc1ccccc1c2OC (centres undefined)
0.117

Also, O=C1C2c3[nH]c4ccccc4c3C3CCCCCCC3C2C(=O)N1c1ccccc1 (centres undefined) please.
22.3
